Reported values of fold over background MFI signal for individual entries
# target_system: T1, human MSLN expressed on CHO cells (human, UniProt Q13421 296-598)
# T1 construct: whole, on cells; also called CHO-huMSLN
# T1 sequence (Q13421 other isoform, or with tags, fused parts or gaps limits assumed): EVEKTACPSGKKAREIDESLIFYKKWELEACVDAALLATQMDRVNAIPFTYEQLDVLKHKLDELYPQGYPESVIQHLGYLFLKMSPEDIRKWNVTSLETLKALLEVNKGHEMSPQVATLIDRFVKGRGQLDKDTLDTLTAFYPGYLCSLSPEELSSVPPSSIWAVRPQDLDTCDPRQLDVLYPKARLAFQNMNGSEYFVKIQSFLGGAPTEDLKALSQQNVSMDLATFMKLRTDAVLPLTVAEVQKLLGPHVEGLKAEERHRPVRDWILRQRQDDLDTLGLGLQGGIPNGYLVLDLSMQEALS
# experiment_description: flow cytometry, antibody supernatant on CHO cells expressing human MSLN
Note to self: number, then unit, no commentary.

Here's what some known entries look like.
anti-MSLN single domain antibody clone 394606 (VHH, Human VH single domain antibody; Tested as antibody-containing supernatant) VHH: QLQLQESGPGLVKPSETLSLTCTVSGGSISSSYYWGWIRQPPGKGLEWIGSIYHSGNTYYNPSLKSRVTISVDTSKNQFSLKLSSVTAADTAVYYCATQNGVGATTTEEYWGQGTLVTVSS; 87.3 fold over background
anti-MSLN single domain antibody clone 394573 (VHH, Human VH single domain antibody; Tested as antibody-containing supernatant) VHH: QLQLQESGPGLVKPSETLSLTCTVSGGSISNSYYWGWIRQPPGKGLEWIGSIYHSGNTYYNPSLKSRVTISVDTSKNQFSLKLSSVTAADTAVYYCATQNGVGATTTEEYWGQGTLVTVSS; 194 fold over background
anti-MSLN single domain antibody clone 394607 (VHH, Human VH single domain antibody; Tested as antibody-containing supernatant) VHH: QLQLQESGPGLVKPSETLSLTCTVSGGSISNSYYWGWIRQPPGKGLEWIGSIYYSGSTYYNPSLKSRVTISVDTSKNQFSLSLNSVTAADTAVYYCATQDGVGATTTEEYWGQGTLVTVSS; 141 fold over background
anti-MSLN single domain antibody clone 394610 (VHH, Human VH single domain antibody; Tested as antibody-containing supernatant) VHH: QLQLQESGPGLVKPSETLSLTCTVSGGSISSSYYWGWIRQPPGKGLEWIGSIYHSGNTYYNPSLKSRVTISVDTSKNQFSLKLSSVTAADTAVYYCTSQDGVGATTTEEYWGQGTLVTVSS; 78 fold over background
anti-MSLN single domain antibody clone 394541 (VHH, Human VH single domain antibody; It was captured on anti-hIgG Fc sensors) VHH: QLQLQESGPGLVKPSETLSLTCTVSGGSISNSYYWGWIRQPPGKGLEWIGSIYHSGNTYYNPSLKSRVTMSVDTSKNQFSLKLSSVTAADTAVYYCTSQDGVGATTTEEYWGQGTLVTVSS; 422 fold over background

// switching to the query binder
Prompt: Read the entry anti-MSLN single domain antibody clone 394582 (VHH, Human VH single domain antibody; It was captured on anti-hIgG Fc sensors) VHH: QLQLQESGPGLVKPSETLSLTCTVSGGSISNSYYWGWIRQPPGKGLEWIGSIYHSGNTYYNPSLKSRVTISVDTSKNQFSLKLSSVTAADTAVYYCTTQNGVGATTTEEYWGQGTLVTVSS and write its reported fold over background MFI signal.
Completion: 367 fold over background
